Target: human TAS1R2-WT/TAS1R3-P780A (Homo sapiens, UniProt Q7RTX0+Q8TE23, P780A)
Construct: expressed in transfected cells; host or cells: HEK293T stably expressing Gα16gust44
Sequence (Q8TE23 20-839): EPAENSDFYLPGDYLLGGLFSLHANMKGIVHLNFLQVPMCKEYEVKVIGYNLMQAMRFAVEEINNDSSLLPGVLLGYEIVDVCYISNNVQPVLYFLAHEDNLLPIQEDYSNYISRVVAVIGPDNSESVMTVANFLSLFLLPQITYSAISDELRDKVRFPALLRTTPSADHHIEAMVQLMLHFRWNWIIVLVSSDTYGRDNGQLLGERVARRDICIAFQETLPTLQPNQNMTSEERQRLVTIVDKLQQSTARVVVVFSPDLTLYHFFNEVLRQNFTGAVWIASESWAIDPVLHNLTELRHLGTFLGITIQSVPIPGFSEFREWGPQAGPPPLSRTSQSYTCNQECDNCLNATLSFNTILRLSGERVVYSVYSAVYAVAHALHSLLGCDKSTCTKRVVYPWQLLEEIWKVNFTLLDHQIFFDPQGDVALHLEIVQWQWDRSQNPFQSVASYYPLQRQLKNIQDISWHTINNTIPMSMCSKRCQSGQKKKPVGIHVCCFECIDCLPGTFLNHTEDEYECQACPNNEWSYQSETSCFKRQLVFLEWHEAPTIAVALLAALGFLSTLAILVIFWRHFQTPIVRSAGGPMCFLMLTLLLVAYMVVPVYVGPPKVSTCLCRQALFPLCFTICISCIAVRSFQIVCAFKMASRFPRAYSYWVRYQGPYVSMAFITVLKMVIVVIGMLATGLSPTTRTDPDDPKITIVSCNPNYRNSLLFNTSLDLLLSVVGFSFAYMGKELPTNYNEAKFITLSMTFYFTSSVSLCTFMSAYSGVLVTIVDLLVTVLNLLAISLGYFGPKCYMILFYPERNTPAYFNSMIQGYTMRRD
Sequence (Q7RTX0 21-852 P780A): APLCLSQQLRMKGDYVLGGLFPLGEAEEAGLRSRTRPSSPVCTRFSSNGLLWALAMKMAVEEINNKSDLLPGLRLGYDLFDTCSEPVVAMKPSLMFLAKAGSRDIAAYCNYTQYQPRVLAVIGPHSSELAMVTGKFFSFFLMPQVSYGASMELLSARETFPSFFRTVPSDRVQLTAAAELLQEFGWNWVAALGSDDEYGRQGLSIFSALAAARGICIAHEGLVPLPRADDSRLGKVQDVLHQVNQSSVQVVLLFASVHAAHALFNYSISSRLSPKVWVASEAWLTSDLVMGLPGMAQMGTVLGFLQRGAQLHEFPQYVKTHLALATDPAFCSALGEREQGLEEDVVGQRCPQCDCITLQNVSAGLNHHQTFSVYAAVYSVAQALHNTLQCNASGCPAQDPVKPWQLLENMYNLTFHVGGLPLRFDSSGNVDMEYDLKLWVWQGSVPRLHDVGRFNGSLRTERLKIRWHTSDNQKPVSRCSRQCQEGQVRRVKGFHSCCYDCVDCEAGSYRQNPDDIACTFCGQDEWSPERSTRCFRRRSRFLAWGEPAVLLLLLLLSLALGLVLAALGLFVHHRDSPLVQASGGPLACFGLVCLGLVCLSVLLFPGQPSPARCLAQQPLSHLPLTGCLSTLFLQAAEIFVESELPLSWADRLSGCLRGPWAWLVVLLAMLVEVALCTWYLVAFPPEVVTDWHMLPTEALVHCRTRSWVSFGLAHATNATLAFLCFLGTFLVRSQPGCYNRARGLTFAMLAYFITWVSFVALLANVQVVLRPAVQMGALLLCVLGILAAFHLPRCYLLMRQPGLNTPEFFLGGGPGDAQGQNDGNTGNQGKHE
Test: Calcium mobilisation assay, TAS1R2-WT with TAS1R3 variant P780A
Type: cell-based
Conditions: maximal signal amplitude
Source text: The coding sequences for TAS1R2 and TAS1R3 were commercially synthesised, and the human codon was optimised for expression in human cells. […] The HEK293T cells were kindly provided by Jay P. Slack (Givaudan Flavors Corporation; Cincinnati, OH, USA). […] The Ca^2+ changes were expressed as fractional changes in fluorescent light intensity: ΔF/F = (F − F0)/F0, where F was the fluorescent light intensity at each point, and F0 was the value of emitted fluorescent light prior to stimulus application. […]
quantity: Max ΔF/F0
// response body must contain only the number

{"molecule": "COc1ccc(CCC(=O)c2c(O)cc(O[C@@H]3O[C@H](CO)[C@@H](O)[C@H](O)[C@H]3O[C@@H]3O[C@@H](C)[C@H](O)[C@@H](O)[C@H]3O)cc2O)cc1O [NHDC, neohesperidin dihydrochalcone]", "quantity": "Max ΔF/F0", "quantitative_result": 1.50}

Here is another molecule to look at.
Form field: reported Max ΔF/F0 of C=C1C[C@@]23CC[C@H]4[C@@](C)(CCC[C@@]4(C)C(=O)O[C@@H]4O[C@H](CO)[C@@H](O)[C@H](O[C@@H]5O[C@H](CO)[C@@H](O)[C@H](O)[C@H]5O)[C@H]4O[C@@H]4O[C@H](CO)[C@@H](O)[C@H](O)[C@H]4O)[C@@H]2CC[C@]1(O[C@@H]1O[C@H](CO)[C@@H](O)[C@H](O[C@@H]2O[C@H](CO)[C@@H](O)[C@H](O)[C@H]2O)[C@H]1O[C@@H]1O[C@H](CO)[C@@H](O)[C@H](O)[C@H]1O)C3 [Rebaudioside M, rebaudioside M]
1.21

Recorded values, source paper PMC11945486.
